The measured values listed here are drawn from patent US20190127354A1.

human DNMT1 (Homo sapiens): recorded pIC50 for assorted compounds
Sequence (P26358 whole entry): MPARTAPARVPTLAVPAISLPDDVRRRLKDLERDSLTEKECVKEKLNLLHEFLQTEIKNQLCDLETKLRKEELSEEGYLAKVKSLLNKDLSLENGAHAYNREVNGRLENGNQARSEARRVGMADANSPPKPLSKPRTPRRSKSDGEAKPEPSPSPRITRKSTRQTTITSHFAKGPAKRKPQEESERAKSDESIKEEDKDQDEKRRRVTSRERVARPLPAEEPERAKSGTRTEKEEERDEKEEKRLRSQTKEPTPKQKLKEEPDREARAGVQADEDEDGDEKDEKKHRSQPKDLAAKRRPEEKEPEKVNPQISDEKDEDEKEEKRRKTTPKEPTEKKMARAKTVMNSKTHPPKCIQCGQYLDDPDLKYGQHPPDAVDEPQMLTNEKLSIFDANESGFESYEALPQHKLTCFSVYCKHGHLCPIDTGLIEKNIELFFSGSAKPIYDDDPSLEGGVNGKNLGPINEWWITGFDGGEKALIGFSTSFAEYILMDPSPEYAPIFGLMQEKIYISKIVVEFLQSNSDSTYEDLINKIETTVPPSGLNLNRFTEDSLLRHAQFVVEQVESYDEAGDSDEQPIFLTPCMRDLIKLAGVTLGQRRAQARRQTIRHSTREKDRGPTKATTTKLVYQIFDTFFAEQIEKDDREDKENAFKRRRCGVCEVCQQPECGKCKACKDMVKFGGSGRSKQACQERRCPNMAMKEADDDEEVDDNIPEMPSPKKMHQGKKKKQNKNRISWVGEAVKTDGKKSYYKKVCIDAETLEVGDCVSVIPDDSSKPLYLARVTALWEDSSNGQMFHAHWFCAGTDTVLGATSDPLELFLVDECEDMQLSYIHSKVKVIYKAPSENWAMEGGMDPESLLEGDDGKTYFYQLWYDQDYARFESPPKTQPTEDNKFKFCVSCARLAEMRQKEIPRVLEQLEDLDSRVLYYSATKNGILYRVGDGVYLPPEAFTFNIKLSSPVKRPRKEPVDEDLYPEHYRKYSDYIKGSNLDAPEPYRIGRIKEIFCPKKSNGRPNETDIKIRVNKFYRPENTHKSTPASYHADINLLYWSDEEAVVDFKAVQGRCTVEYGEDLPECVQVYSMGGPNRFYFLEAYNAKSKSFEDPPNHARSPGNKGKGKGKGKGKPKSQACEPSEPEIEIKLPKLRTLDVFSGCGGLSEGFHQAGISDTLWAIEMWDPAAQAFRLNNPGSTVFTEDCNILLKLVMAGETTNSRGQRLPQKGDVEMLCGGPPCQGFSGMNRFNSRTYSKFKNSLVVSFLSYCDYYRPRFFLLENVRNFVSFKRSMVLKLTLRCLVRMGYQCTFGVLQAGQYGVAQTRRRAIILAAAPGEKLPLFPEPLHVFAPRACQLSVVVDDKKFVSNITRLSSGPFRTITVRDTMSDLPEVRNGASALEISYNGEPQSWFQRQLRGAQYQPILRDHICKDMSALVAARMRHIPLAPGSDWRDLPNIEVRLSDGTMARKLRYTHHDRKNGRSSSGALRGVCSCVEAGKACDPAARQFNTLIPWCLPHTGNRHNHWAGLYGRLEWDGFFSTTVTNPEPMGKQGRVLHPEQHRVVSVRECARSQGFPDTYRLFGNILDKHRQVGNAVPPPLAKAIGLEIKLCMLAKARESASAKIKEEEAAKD
pIC50: −log10 of the molar value.
Measurement name: pIC50

{"Smiles str": "CNC1CCN(c2cc(-c3ccc(C)o3)nc3cc(OCCCN4CCCC4)c(OC)cc23)CC1", "Measurement name": "pIC50", "Data value": "6.00 to 6.30"}
{"Smiles str": "CNC1CCN(c2cc(-c3ccc(C)[nH]3)nc3cc(OCCCN4CCCC4)c(OC)cc23)CC1", "Measurement name": "pIC50", "Data value": "6.00 to 6.30"}
{"Smiles str": "CNCC1CCN(c2cc(-c3ccccc3)nc3cc(OCCCN4CCCC4)c(OC)cc23)CC1", "Measurement name": "pIC50", "Data value": "5.00 to 6.00"}
